Value source: patent US20150098989A1

target: SNARE complex (VAMP, syntaxin, SNAP-25) (UniProt P60880); experiment: SDS-PAGE of SNARE complex (VAMP, syntaxin, SNAP-25), image analysis; compound at 1 mM
Sequence (P60880 whole entry, one chain of several): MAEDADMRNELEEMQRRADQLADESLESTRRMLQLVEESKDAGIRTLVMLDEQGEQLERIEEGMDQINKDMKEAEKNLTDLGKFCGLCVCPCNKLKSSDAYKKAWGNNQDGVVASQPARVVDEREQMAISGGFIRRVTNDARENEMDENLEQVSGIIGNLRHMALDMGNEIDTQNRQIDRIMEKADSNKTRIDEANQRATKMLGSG
OBSERVATION_TYPE: % inhibition formation SNARE complex

[[record]]
binder = "Ac-DHFLDWM-NH2 [Ac-SEQ ID NO: 25-NH2]"
observation_type = "% inhibition formation SNARE complex"
result = "83%"

[[record]]
binder = "Ac-EDLKRWM-NH2 [Ac-SEQ ID NO: 14-NH2]"
observation_type = "% inhibition formation SNARE complex"
result = "83%"

[[record]]
binder = "Ac-EHLKQWM-NH2 [Ac-SEQ ID NO: 1-NH2]"
observation_type = "% inhibition formation SNARE complex"
result = "59%"

[[record]]
binder = "Ac-QDFLHWM-NH2 [Ac-SEQ ID NO: 2-NH2]"
observation_type = "% inhibition formation SNARE complex"
result = "37%"

